TESTED SYSTEM: NMDA receptor (Rattus norvegicus)
RUN DESCRIPTION: Binding affinity against Ionotropic glutamate receptor using [3H]- CGS-19755 displacement from rat forebrain preparations
RECORDED METRIC: pIC50
Answers are plain numbers, as −log10 of the molar value.

## Input Quote pIC50 reported for N[C@@H](C[C@H](CCC(c1ccccc1)c1ccccc1)C(=O)O)C(=O)O please.
## Output 4.88

All values here come from BindingDB's records for doi:10.1016/s0960-894x(98)00091-2.
